Attribute: interaction score
testTarget: T1, 4H3855-bA
T1 chain: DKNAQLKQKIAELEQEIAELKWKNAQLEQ
assayExplanation: two-hybrid library CCNG1;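 further: natural log of median RNA to DNA barcode read ratio; higher means stronger binding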
Lab note: jot the number down without any unit.

Prompt: Query interaction score for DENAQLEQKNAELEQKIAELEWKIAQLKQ [4H1446-bA]
Response: 0.209

Prompt: Query interaction score for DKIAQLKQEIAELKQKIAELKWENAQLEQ [4H2667-bA]
Response: -0.565

Prompt: Query interaction score for DENAQLEQKIAELKQENAELKWEIAQLEQ [4H1369-bA]
Response: -1.08

Prompt: Query interaction score for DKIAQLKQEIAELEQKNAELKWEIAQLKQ [4H2618-bA]
Response: -0.835

Prompt: Query interaction score for DEIAQLEQKIAELKQEIAELKWENAQLEQ [4H331-bA]
Response: 0.317

Prompt: Query interaction score for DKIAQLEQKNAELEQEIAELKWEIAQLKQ [4H2442-bA]
Response: -0.595

Prompt: Query interaction score for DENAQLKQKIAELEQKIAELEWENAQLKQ [4H1828-bA]
Response: -0.259

Prompt: Query interaction score for DKNAQLKQKIAELEQEIAELKWKNAQLEQ [4H3855-bA]
Response: 0.372

Prompt: Query interaction score for DKNQELKKKIEELEREIWELEKENQELER [4H3843-bH]
Response: 1.29

Prompt: Query interaction score for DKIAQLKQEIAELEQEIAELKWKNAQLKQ [4H2576-bA]
Response: 0.525

Prompt: Query interaction score for DKNAQLEQKIAELEQENAELKWEIAQLKQ [4H3354-bA]
Response: -0.492

Prompt: Query interaction score for DEIAQLEQKIAELKQENAELEWEIAQLKQ [4H338-bA]
Response: -0.445

Prompt: Query interaction score for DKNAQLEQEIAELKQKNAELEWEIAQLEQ [4H3185-bA]
Response: -0.974

Prompt: Query interaction score for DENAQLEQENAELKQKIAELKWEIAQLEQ [4H1257-bA]
Response: -0.705

These measurements were taken from paper PMC10397247.
